- Experiment description: Kinetic study: plasma kinetics of TMC278 after single IM or SC injection of a nanosuspension
- Type: in vivo, male beagle dogs
- Protocol conditions: male, beagle, dog, plasma, sc, 5 mg/kg, plasma concentration of TMC278, single SC 5 mg/kg TMC278 nanosuspension, dog 19349, 696 h (d29)
Reported property: concentration at 696 h (ng/mL)
Express it in ng/mL; write the number only.

Problem: Param item = Cc1cc(C=CC#N)cc(C)c1Nc1ccnc(Nc2ccc(C#N)cc2)n1 ; retrieve measured concentration at 696 h.
Solution: 10.5

###

- Experiment description: Kinetic study: plasma kinetics of TMC278 after single IM or SC injection of a nanosuspension
- Type: in vivo, male beagle dogs
- Protocol conditions: male, beagle, dog, plasma, intramuscular, 5 mg/kg, plasma concentration of TMC278, single IM 5 mg/kg TMC278 nanosuspension, dog 18186, 648 h (d27)
Reported property: concentration at 648 h (ng/mL)
The reply should be a number in ng/mL, with the unit left off.

Problem: Which concentration at 648 h value is on record for Cc1cc(C=CC#N)cc(C)c1Nc1ccnc(Nc2ccc(C#N)cc2)n1 [TMC278] ?
Solution: 9.08

###

- Experiment description: Kinetic study: plasma kinetics of TMC278 after single IM or SC injection of a nanosuspension
- Type: in vivo, male beagle dogs
- Protocol conditions: male, beagle, dog, plasma, sc, 5 mg/kg, plasma concentration of TMC278, single SC 5 mg/kg TMC278 nanosuspension, dog 19349, 2208 h (d92)
Reported property: concentration at 2208 h (ng/mL)
Use ng/mL as the unit, but write only the number.

Problem: Data request, read-out concentration at 2208 h, for Cc1cc(C=CC#N)cc(C)c1Nc1ccnc(Nc2ccc(C#N)cc2)n1
Solution: 2.49

###

- Experiment description: Kinetic study: plasma kinetics of TMC278 after single IM or SC injection of a nanosuspension
- Assay type: in vivo, male beagle dogs
- Protocol conditions: male, beagle, dog, plasma, sc, 5 mg/kg, plasma concentration of TMC278, single SC 5 mg/kg TMC278 nanosuspension, mean of 2 dogs, 1704 h (d71)
Reported property: concentration at 1704 h (ng/mL)
Number only, in ng/mL; omit the unit.

Problem: Dear colleague, I am looking for the recorded concentration at 1704 h of the following compound: Cc1cc(C=CC#N)cc(C)c1Nc1ccnc(Nc2ccc(C#N)cc2)n1
Solution: 3.77

###

- Experiment description: Kinetic study: plasma kinetics of TMC278 after single IM or SC injection of a nanosuspension
- Type: in vivo, male beagle dogs
- Protocol conditions: male, beagle, dog, plasma, intramuscular, 5 mg/kg, plasma concentration of TMC278, single IM 5 mg/kg TMC278 nanosuspension, dog 18186, 1872 h (d78)
Reported property: concentration at 1872 h

Problem: For the compound Cc1cc(C=CC#N)cc(C)c1Nc1ccnc(Nc2ccc(C#N)cc2)n1 [TMC278] , what concentration at 1872 h is on record?
Solution: 1.45 ng/mL

###

- Experiment description: Kinetic study: plasma kinetics of TMC278 after single IM or SC injection of a nanosuspension;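 note: healthy male beagle dogs injected in both biceps femoris muscles (IM) or both thoracal sides (SC), total volume 0.2 mL/kg, drug measured in plasma from blood samples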
- Format: in vivo, male beagle dogs
- Protocol conditions: male, beagle, dog, plasma, intramuscular, 5 mg/kg, plasma concentration of TMC278, single IM 5 mg/kg TMC278 nanosuspension, mean of 2 dogs, 1872 h (d78)
Reported property: concentration at 1872 h (ng/mL)
Use ng/mL as the unit, but write only the number.

Problem: Report concentration at 1872 h for Cc1cc(C=CC#N)cc(C)c1Nc1ccnc(Nc2ccc(C#N)cc2)n1 please.
Solution: 1.62
